target: EPHB2 (UniProt P29323); experiment: phosphorylation enrichment, bacterial display (enrichment ratio); higher = better substrate or ligand; peptides without Tyr show the background;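 note: 11-residue human phosphosite peptides and single-mutation variants displayed on the E. coli surface, counted by deep sequencing, each peptide's frequency after selection divided by its frequency in the unselected input library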;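 note: frequency after pTyr selection over input frequency; kinase dosed for 20-30% of maximal phosphorylation in three min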
Sequence (P29323 whole entry, looked up): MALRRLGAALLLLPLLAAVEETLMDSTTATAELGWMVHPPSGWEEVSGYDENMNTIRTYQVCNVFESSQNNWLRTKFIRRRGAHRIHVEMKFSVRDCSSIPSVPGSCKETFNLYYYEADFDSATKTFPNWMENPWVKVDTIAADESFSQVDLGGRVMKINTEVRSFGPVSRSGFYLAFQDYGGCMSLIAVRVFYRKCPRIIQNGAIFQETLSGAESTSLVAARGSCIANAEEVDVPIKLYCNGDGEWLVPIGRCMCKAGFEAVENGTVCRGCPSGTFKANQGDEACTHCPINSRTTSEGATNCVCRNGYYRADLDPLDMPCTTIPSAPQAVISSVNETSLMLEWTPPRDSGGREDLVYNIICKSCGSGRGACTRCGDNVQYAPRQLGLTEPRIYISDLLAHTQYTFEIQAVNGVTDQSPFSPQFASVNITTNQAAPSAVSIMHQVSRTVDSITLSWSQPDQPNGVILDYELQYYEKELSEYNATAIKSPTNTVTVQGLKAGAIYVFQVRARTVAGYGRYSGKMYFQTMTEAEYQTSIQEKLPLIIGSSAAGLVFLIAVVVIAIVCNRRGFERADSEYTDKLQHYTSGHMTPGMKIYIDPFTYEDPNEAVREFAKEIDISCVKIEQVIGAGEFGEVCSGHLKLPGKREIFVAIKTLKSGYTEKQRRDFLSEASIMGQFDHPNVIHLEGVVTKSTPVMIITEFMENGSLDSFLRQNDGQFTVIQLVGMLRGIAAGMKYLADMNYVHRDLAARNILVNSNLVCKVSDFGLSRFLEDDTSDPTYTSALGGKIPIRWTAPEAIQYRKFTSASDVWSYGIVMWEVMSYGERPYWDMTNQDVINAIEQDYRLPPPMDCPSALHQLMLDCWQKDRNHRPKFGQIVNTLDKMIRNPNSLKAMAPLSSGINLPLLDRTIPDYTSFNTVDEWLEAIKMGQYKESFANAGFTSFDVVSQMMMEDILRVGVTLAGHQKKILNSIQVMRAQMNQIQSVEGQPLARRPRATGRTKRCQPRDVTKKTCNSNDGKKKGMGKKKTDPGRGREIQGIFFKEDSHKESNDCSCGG
Answer each item with its documented phosphorylation enrichment.
Number only, no unit.

Query: phosphorylation enrichment; subject: KWHREYNSKYV [RICTOR_Y835]
0.401

Please report the recorded phosphorylation enrichment for HAVEDYQAIVD [CCT7_Y263_T259A] .
1.03

Field request: phosphorylation enrichment | item: HIAKVYRRDNP [HARS1_Y156]
0.463

Suppose we examine the sequence SVVVPYEPHEV [TP53_Y220_P223H] ; what phosphorylation enrichment value has been reported?
0.615

Query: phosphorylation enrichment; subject: TKFVAYIESQG [KDM4B_Y34_N29T_YF]
0.56

State the recorded phosphorylation enrichment for this entry: CATIHYNYMCN [TP53_Y234_T230A]
1.99

// query phosphorylation enrichment value for entry IRDLKYTIENP [SND1_Y178]
0.522
